Test system: alkaline phosphatase, intestinal [Bos taurus]
TEST_DETAILS: bovine intestinal alkaline phosphatase inhibitors, primary screen, selectivity assay for TNAP inhibitor project, biochemical, bovine IAP, CDP-star luminescence (AID 1019)
CONDITION_INFO: purified bovine IAP, 30 min, at 20 µM, stronger effect = higher value
Fewer than 10 of roughly 190,000 compounds were called active. A selection follows.
# inhibition listing for each entry below

>  <COMPOUND>
CSc1nc2c(c(=O)[nH]1)C(c1cccc(Cl)c1Cl)CC(=O)N2 (configuration not stated)

>  <inhibition>
-12.6% (inactive)

$$$$
>  <COMPOUND>
O=C(COC(=O)Cn1cnc2ccccc2c1=O)NCC12CC3CC(CC(C3)C1)C2

>  <inhibition>
12.5% (inactive)

$$$$
>  <COMPOUND>
CC(NC(=O)CC1SC(N)=NC1=O)c1ccccc1 (configuration not stated)

>  <inhibition>
-8.1% (inactive)

$$$$
>  <COMPOUND>
O=C(CCc1[nH]c2ccccc2c1Sc1ccccc1)N(CCO)CCO

>  <inhibition>
14.8% (inactive)

$$$$
>  <COMPOUND>
COC(=O)c1c(NC(=O)c2c(Cl)cnn2C)sc(C)c1C

>  <inhibition>
0.9% (inactive)

$$$$
>  <COMPOUND>
Cc1ccc(NC(=S)N(Cc2ccco2)C(C)c2cccs2)cc1 (configuration not stated)

>  <inhibition>
34.5% (inactive)

$$$$
>  <COMPOUND>
COc1ccc(Cn2c(=O)cc(C)[nH]c2=S)cc1

>  <inhibition>
9.8% (inactive)

$$$$
